- TESTED ON: recombinant Antigen 1 (recombinant Ab1 target; recombinant integrin αvβ6 antigen)
- Sequence (P06756 31-992, chain 1 of 2): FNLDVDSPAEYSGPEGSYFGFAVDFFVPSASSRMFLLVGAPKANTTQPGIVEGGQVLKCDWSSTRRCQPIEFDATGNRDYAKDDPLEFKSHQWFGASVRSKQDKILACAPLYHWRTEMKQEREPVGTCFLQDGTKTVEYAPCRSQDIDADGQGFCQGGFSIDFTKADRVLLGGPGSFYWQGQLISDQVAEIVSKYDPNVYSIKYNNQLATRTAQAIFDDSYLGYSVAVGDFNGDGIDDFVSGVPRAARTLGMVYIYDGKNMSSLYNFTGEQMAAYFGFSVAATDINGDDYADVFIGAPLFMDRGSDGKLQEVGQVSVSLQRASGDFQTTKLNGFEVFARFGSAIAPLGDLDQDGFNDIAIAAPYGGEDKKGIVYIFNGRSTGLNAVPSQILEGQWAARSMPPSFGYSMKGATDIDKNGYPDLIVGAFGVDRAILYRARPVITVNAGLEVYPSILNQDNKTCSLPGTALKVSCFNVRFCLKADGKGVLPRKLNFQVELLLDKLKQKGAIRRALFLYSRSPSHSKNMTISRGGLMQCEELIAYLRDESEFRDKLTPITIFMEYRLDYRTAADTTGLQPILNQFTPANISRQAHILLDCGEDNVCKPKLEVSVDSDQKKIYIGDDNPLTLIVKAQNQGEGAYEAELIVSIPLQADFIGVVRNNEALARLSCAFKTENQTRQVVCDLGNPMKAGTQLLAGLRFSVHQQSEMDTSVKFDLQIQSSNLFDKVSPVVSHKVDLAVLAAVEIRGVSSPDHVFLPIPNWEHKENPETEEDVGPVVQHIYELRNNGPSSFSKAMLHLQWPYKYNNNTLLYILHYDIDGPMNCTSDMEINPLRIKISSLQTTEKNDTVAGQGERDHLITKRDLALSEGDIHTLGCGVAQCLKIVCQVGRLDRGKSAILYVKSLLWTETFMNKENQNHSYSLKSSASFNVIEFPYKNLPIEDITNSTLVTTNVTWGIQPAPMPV
- Sequence (P18564 22-709, chain 2 of 2, further chain): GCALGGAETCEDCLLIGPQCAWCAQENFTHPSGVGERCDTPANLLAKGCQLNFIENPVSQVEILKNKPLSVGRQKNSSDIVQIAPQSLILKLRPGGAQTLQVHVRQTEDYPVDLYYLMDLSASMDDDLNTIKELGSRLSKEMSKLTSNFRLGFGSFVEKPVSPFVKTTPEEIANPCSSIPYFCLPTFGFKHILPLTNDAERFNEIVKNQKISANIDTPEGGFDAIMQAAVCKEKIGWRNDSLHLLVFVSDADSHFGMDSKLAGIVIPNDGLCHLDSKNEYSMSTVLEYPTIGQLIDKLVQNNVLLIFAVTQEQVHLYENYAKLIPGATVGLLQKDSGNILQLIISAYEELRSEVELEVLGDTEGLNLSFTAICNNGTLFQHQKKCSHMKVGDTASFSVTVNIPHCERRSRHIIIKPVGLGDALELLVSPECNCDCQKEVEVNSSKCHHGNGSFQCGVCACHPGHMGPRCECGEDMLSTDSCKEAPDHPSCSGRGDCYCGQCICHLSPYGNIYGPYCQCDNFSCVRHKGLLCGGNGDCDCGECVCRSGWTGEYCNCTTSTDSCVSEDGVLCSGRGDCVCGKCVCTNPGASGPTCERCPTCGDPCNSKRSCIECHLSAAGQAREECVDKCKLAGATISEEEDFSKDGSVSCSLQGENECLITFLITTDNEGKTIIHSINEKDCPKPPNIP
- RUN DESCRIPTION: saturation binding ELISA
ASSAY ENDPOINT: EC50 fold change from Ab1 (fold)
Write the value in fold as a bare number.

Using the record for Vel-IPV-Ab1 Coil 142 (antibody, part only; not given: Ab1 heavy and light chains, part only) heavy, part: QGASTSVDELQAEVDQLEDENYALKTKKAQLRKKVEKLGSIPVSLRSG light, part: QGASTTVAQLEEKVKTLRAENYELKSEIQRLEEQVAQLGSIPVSLRSG , report its EC50 fold change from Ab1. 461

Using the record for Vel-IPV-Ab1 Coil 110 (antibody, part only; not given: Ab1 heavy and light chains, part only) heavy, part: QGASTSVDELQAEVDQLEDENYAGKTKVAQLRKKVEKLGSIPVSLRSG light, part: QGASTTVAQLEEKVKTLRAENYEWKSEVQRLEEQVAQLGSIPVSLRSG , report its EC50 fold change from Ab1. 1890

Using the record for Vel-IPV-Ab1 Coil 117 (antibody, part only; not given: Ab1 heavy and light chains, part only) heavy, part: QGASTSVDELQAEVDQLEDENYAFKTKVAQLRKKVEKLGSIPVSLRSG light, part: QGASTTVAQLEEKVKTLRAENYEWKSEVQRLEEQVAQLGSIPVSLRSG , report its EC50 fold change from Ab1. 1110

Using the record for Vel-IPV-Ab1 Coil 122 (antibody, part only; not given: Ab1 heavy and light chains, part only) heavy, part: QGASTSVDELQAEVDQLEDENYAYKTKVAQLRKKVEKLGSIPVSLRSG light, part: QGASTTVAQLEEKVKTLRAENYEAKSEVQRLEEQVAQLGSIPVSLRSG , report its EC50 fold change from Ab1. 344
